experiment: Drug uptake in C57BL/6J mouse plasma at 6 mg/kg, po after 3 hrs by LC/MS/MS analysis; format: ADME, organism-based
endpoint: concentration at 3 h (ng/mL)
Kindly provide the numeric value in ng/mL only, without the unit symbol.

Please report the measured concentration at 3 h for `COc1cc(-c2nnc3n2CCC[C@]3(Oc2cc(F)c(F)c(F)c2)C(C)(C)O)ccc1-c1cnc(C)o1`
3310

###

experiment: Drug uptake in C57BL/6J mouse cortex at 6 mg/kg, po after 3 hrs by LC/MS/MS analysis; assay type: ADME, organism-based; conditions: read-out: Drug uptake
endpoint: concentration at 3 h (ng/g)
Kindly provide the numeric value in ng/g only, without the unit symbol.

Please report the measured concentration at 3 h for `COc1cc(-c2nnc3n2CCC[C@]3(Oc2cc(F)c(F)c(F)c2)C(C)(C)O)ccc1-c1cnc(C)o1`
677
